biological target: mu opioid receptor (MOR) (Homo sapiens, UniProt P35372); experiment: MOR GTPγS agonist assay; format: biochemical; set-up: host or cells: CHO-K1
Sequence (P35372 whole entry): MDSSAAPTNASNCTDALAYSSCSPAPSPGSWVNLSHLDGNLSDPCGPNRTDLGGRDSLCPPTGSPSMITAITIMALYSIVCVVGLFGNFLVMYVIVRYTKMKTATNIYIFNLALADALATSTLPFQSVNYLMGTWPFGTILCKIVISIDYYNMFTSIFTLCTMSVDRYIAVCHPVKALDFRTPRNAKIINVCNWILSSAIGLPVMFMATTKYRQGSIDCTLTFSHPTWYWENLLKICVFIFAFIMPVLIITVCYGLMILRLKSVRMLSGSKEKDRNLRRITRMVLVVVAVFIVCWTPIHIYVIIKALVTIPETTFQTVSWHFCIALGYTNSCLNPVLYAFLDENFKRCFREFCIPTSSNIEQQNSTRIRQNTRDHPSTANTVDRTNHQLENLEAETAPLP
pEC50: −log10 of the molar value.
Attribute Measured: pEC50

Find the recorded pEC50 belonging to `CN(C)[C@H](CNC(=O)c1ccccc1-c1ccccc1)Cc1ccc(O)cc1` and report it. < 6.00

###

target: kappa opioid receptor (KOR) (Homo sapiens, UniProt P41145); construct: host or cells: CHO-K1; experiment: cell-based; settings: kOR cAMP IC50, CHO-K1 cells expressing kOR; after activation with dynorphin B
Sequence (P41145 whole entry): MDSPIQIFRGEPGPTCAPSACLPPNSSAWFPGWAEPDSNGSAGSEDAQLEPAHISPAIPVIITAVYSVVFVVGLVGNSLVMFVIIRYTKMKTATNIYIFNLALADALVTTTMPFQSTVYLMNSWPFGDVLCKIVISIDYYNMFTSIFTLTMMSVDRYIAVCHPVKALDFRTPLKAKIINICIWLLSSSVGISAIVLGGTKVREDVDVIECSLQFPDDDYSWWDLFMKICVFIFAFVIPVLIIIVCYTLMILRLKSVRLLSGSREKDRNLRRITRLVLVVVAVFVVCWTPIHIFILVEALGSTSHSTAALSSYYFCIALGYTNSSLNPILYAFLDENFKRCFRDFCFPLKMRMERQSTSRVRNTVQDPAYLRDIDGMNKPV
Exercise: state measured IC50 for each of the molecules provided.

Previously resolved entries follow.
CN(C)[C@H](CNC(=O)[C@@H]1C[C@]1(C)c1ccccc1)Cc1ccc(O)c(Cl)c1 : < 100 nM
CN(C)[C@H](CNC(=O)[C@@H]1C[C@@]1(C)c1ccccc1)Cc1ccc(O)cc1F : > 1000 nM
CN(C)[C@H](CNC(=O)[C@@H]1C[C@]1(C)c1ccccc1)Cc1ccc(O)c(F)c1 : < 100 nM

Please supply IC50 for each of the following items, keeping them in order.
1. Cc1cc(C(N)=O)cc(C)c1C[C@H](N)CNC(=O)O[C@@H](C)c1ccccc1
2. CN(C)[C@H](CNC(=O)[C@@H]1CCCN1c1ccccc1)Cc1ccc(C(N)=O)cc1

< 100 nM
100 to 1000 nM

Please supply IC50 for each of the following items, keeping them in order.
1. CNC(=O)c1ccc(C[C@@H](CNC(=O)[C@@H]2C[C@@]2(C)c2ccccc2)N(C)C)cc1F
2. CN(C)[C@H](CNC(=O)[C@@H]1C[C@]1(C)c1ccccc1)Cc1ccc(O)cc1F
3. CN(C)[C@H](CNC(=O)[C@@H]1C[C@@]1(C)c1ccccc1)Cc1ccc(C(N)=O)cc1Cl [Compound B-60]
4. CN(C)[C@H](CNC(=O)[C@@H]1C[C@@]1(C)c1ccccc1)Cc1c(F)cc(O)cc1F
5. Cc1cc(C(N)=O)cc(C)c1C[C@@H](CNC(=O)C[C@@H](C)c1ccccc1)N(C)C
6. CN(C)[C@H](CNC(=O)[C@@H]1C[C@]1(C)c1ccccc1)Cc1ccc(C(N)=O)cc1Cl
7. Cc1cc(C(N)=O)cc(C)c1C[C@@H](CNC(=O)[C@@H]1C[C@@]1(C)c1ccccc1)N(C)C
8. Cc1cc(O)ccc1C[C@@H](CNC(=O)[C@@H]1C[C@]1(C)c1ccccc1)N(C)C

> 1000 nM
< 100 nM
< 100 nM
> 1000 nM
100 to 1000 nM
< 100 nM
100 to 1000 nM
< 100 nM

Please supply IC50 for each of the following items, keeping them in order.
1. CN(C)[C@H](CNC(=O)[C@@H]1C[C@]1(C)c1ccccc1)Cc1cc2cn[nH]c2cc1Cl
2. C[C@H](CC(=O)NC[C@H](Cc1ccc(C(N)=O)cc1)N(C)C)c1ccccc1
3. CN(C)[C@H](CNC(=O)[C@@H]1C[C@]1(C)c1ccccc1)Cc1ccc(C(N)=O)cc1

100 to 1000 nM
100 to 1000 nM
< 100 nM

###

Exercise: state measured EC50 for each of the compounds provided.
target: mu opioid receptor (MOR) (Homo sapiens, UniProt P35372); assay: MOR GTPγS agonist assay; format: biochemical; design: host or cells: CHO-K1; conditions: membranes of CHO cells over-expressing MOR; SPA beads; read-out: MOR GTPγS EC50

CN(C)[C@H](CNC(=O)c1ccc(Cl)c(F)c1)Cc1ccc(O)cc1Cl : 100 to 1000 nM
Cc1ccc(C(=O)NC[C@H](Cc2ccc(C(N)=O)cc2)N(C)C)c(C)c1 : < 100 nM
Cc1ccc(C(=O)NC[C@H](Cc2c(C)cc(O)cc2C)N(C)C)cc1C : < 100 nM

Please supply EC50 for each of the following items, keeping them in order.
1. Cc1cc(O)cc(C)c1C[C@@H](CNC(=O)c1ccc(C(F)(F)F)c(Cl)c1)N(C)C
2. CNC(=O)c1cc(C)c(C[C@@H](CNC(=O)c2ccc(Cl)c(F)c2)N(C)C)c(C)c1
3. CN(C)[C@H](CNC(=O)c1ccc(Cl)cc1Cl)Cc1ccc2n[nH]cc2c1
4. CNC(=O)c1cc(C)c(C[C@@H](CNC(=O)c2ccc(C)cc2C)N(C)C)c(C)c1

["< 100 nM", "< 100 nM", "100 to 1000 nM", "< 100 nM"]

Find the recorded EC50 belonging to `CNC(=O)c1cc(C)c(C[C@@H](CNC(=O)c2cnccn2)N(C)C)c(C)c1` and report it. > 1000 nM

###

molecular target: kappa opioid receptor (KOR) (Homo sapiens); construct: host or cells: CHO-K1; assay: cell-based; conditions: read-out: kOR cAMP IC50; CHO-K1 cells expressing kOR; after activation with dynorphin B
Attribute Measured: IC50

Find the recorded IC50 belonging to `CN(C)[C@H](CNC(=O)[C@H]1C[C@@]1(C)c1ccccc1)Cc1ccc(O)cc1` and report it. > 1 µM

###

Exercise: state measured pIC50 for each of the compounds provided.
biological target: kappa opioid receptor (KOR) (Homo sapiens, UniProt P41145); construct: host or cells: CHO-K1; test: cell-based; details: kOR cAMP IC50, CHO-K1 cells expressing kOR; after activation with dynorphin B
pIC50: −log10 of the molar value.

Previously resolved entries follow.
CN(C)[C@H](CNC(=O)[C@@H]1C[C@]1(C)c1ccccc1)Cc1ccc(O)cc1 [Compound B-12] : > 7.00
C[C@H](OC(=O)NC[C@H](Cc1ccc(C(N)=O)cc1)N(C)C)c1ccccc1 [Compound A-3] : < 6.00
CN(C)[C@H](CNC(=O)N[C@H](c1ccccc1)C1CC1)Cc1ccc(C(N)=O)cc1 [Compound A-4] : > 7.00
CN(C)[C@H](CNC(=O)[C@@H]1C[C@]1(C)c1ccccc1)Cc1ccc(C(=O)NC2CC2)c(F)c1 [Compound B-39] : < 6.00
CN(C)[C@H](CNC(=O)[C@@H]1C[C@@]1(C)c1ccccc1)Cc1ccc2[nH]ncc2c1 [Compound B-20] : < 6.00

Please supply pIC50 for each of the following items, keeping them in order.
1. CNC(=O)c1ccc(C[C@@H](CNC(=O)[C@@H]2C[C@]2(C)c2ccccc2)N(C)C)cc1F [Compound B-46]
2. Cc1cc(O)cc(C)c1C[C@@H](CNC(=O)c1ccc(Cl)c(Cl)c1)N(C)C [Compound C-24]

["< 6.00", "> 7.00"]

###

biological target: kappa opioid receptor (KOR) (Homo sapiens, UniProt P41145); construct: host or cells: CHO-K1; assay: cell-based; conditions: kOR cAMP IC50, CHO-K1 cells expressing kOR; after activation with dynorphin B
pIC50: −log10 of the molar value.
Attribute Measured: pIC50

Previously resolved entries follow.
CN(C)[C@H](CNC(=O)[C@@H]1C[C@@]1(C)c1ccccc1)Cc1ccc(O)cc1 [Compound B-62] : 6.00 to 7.00
CN(C)[C@H](CNC(=O)[C@@H]1C[C@]1(C)c1ccccc1)Cc1ccc(O)cc1Cl [Compound B-15] : < 6.00
CN(C)[C@H](CNC(=O)[C@@H]1C[C@]1(C)c1ccccc1)Cc1cc(F)c(O)c(Cl)c1 [Compound B-24] : 6.00 to 7.00
C[C@H](NC(=O)NC[C@H](Cc1ccc(C(N)=O)cc1)N(C)C)c1ccccc1 [Compound A-1] : 6.00 to 7.00
Cc1cc(C[C@@H](CNC(=O)[C@@H]2C[C@]2(C)c2ccccc2)N(C)C)ccc1O [Compound B-42] : 6.00 to 7.00

Please supply pIC50 for each of the following items, keeping them in order.
1. Cc1cc(O)cc(C)c1C[C@@H](CNC(=O)[C@@H]1C[C@@]1(C)c1ccccc1)N(C)C [Compound B-13]
2. CN(C)[C@H](CNC(=O)[C@@H]1C[C@@]1(C)c1ccccc1)Cc1ccc(C(N)=O)cc1Cl [Compound B-6]

1. > 7.00
2. 6.00 to 7.00

###

target: kappa opioid receptor (KOR) (Homo sapiens, UniProt P41145); construct: host or cells: CHO-K1; assay: cell-based; settings: kOR cAMP IC50, CHO-K1 cells expressing kOR; after activation with dynorphin B
Exercise: state measured IC50 for each of the molecules provided.

CN(C)[C@H](CNC(=O)[C@H]1C[C@@]1(C)c1ccccc1)Cc1ccc(C(N)=O)cc1 : 100 to 1000 nM

Please supply IC50 for each of the following items, keeping them in order.
1. CN(C)[C@H](CNC(=O)[C@@H]1C[C@@]1(C)c1ccccc1)Cc1ccc(O)cc1Cl
2. Cc1cc(C[C@@H](CNC(=O)[C@@H]2C[C@]2(C)c2ccccc2)N(C)CC2CC2)ccc1O
3. CN(C)[C@H](CNC(=O)[C@@H]1C[C@H]1c1ccccc1)Cc1ccc(O)cc1
4. Cc1cc(C(N)=O)cc(C)c1C[C@@H](CNC(=O)O[C@@H](C)c1ccccc1)N(C)C
5. CCN(CC)[C@H](CNC(=O)[C@@H]1C[C@]1(C)c1ccccc1)Cc1ccc(O)c(C)c1

["< 100 nM", "> 1000 nM", "100 to 1000 nM", "100 to 1000 nM", "100 to 1000 nM"]

Please supply IC50 for each of the following items, keeping them in order.
1. CN(C)[C@H](CNC(=O)[C@@H]1C[C@]1(C)c1ccccc1)Cc1ccc2[nH]ncc2c1
2. CN(C)[C@H](CNC(=O)[C@H]1C[C@@H]1c1ccccc1)Cc1ccc(O)cc1

1: > 1000 nM; 2: 100 to 1000 nM

Origin of measurements: patent US20210147343A1
